So I've got IC50 readings for SARS-CoV-2 PL^pro (Severe acute respiratory syndrome coronavirus 2, UniProt P0DTD1), take a look.
One number for each entry, in µM.

stdin: Please look up its IC50: CCCCCC/C=C\CCCCCCCc1cccc(O)c1C(=O)O [ginkgolic acid]
stdout: 16.3

Let's switch to this compound now.
stdin: Please look up its IC50: CCCCCCCCCCCCCCCc1cccc(O)c1C(=O)O [anacardic acid]
stdout: 17.1

---

Please respond with reported viability at 48 h, 20 µM for every item in the list.
Experiment Summary: Cell-Titer Glo cytotoxicity assay
Format: cell-based
Conditions Used: African green monkey; Vero-E6 cells, at 20 µM

stdin: Please look up its viability at 48 h, 20 µM: CCCCCC/C=C\CCCCCCCc1cccc(O)c1C(=O)O [ginkgolic acid]
stdout: > 90%

Let's switch to this molecule now.
stdin: Please look up its viability at 48 h, 20 µM: CCCCCCCCCCCCCCCc1cccc(O)c1C(=O)O [anacardic acid]
stdout: > 90%

---

So I've got IC50 readings for SARS-CoV-2 3CL^pro (Severe acute respiratory syndrome coronavirus 2, UniProt P0DTD1), take a look.
Answers are plain numbers, in nM.

stdin: Param readout = IC50; param system = SARS-CoV-2 3CL^pro (Severe acute respiratory syndrome coronavirus 2, UniProt P0DTD1); param query = CCCCCC/C=C\CCCCCCCc1cccc(O)c1C(=O)O ; response: value
stdout: 1790

Let's switch to this compound now.
stdin: Param readout = IC50; param system = SARS-CoV-2 3CL^pro (Severe acute respiratory syndrome coronavirus 2, UniProt P0DTD1); param query = CCCCCCCCCCCCCCCc1cccc(O)c1C(=O)O ; response: value
stdout: 2070

Where these numbers come from: paper PMC7914117
